target_of_assay: LXRβ (Homo sapiens)
Sequence (P55055 whole entry, the tested form may be a part): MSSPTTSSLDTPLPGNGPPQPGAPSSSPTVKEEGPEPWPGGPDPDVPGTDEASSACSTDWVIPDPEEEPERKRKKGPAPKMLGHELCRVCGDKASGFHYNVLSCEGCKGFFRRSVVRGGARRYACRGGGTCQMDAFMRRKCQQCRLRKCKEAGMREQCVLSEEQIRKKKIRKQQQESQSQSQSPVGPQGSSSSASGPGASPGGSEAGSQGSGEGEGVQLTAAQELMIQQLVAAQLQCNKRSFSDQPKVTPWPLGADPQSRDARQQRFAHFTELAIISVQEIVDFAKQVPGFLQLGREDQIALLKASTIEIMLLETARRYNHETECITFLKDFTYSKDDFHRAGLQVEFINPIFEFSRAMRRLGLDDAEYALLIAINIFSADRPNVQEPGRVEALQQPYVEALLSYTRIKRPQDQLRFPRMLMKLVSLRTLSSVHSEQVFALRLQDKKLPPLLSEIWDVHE
measurement_description: LXR Gal4 reporter transient transfection assay (mammalian two-hybrid, HEK293), LXRβ
Format: cell-based
Design: LXRβ (amino acids 156-461); expressed in transfected cells; host or cells: HEK293
measurement_context: full length (FL) LXRβ, HEK293; read-out: FL-M2H Gal4β
Entries and their measured EC50 follow.

# example entries with known answers
* N#Cc1cccc(C#N)c1-c1c(-c2cccc(-c3ccc(S(=O)(=O)O)cc3Cl)c2)n(S(=O)(=O)c2ccc(C(F)F)cc2)c2ccc(F)cc12 | < 100 nM
* N#Cc1nccnc1-c1c(-c2cccc(-c3cc(F)c(C(=O)O)cc3Cl)c2)n(S(=O)(=O)c2ccc(C(F)F)cc2)c2ccc(F)cc12 | < 100 nM
* Cc1ccc(S(=O)(=O)n2c(-c3cccc(-n4ccc(C(=O)O)cc4=O)c3)c(-c3ccsc3C#N)c3cc(F)ccc32)cc1 | 100 to 1000 nM
* N#Cc1cccc(C#N)c1-c1c(-c2cccc([C@H]3CC[C@@H](C(=O)O)CC3)c2)n(S(=O)(=O)c2ccc(C(F)F)cc2)c2ccc(F)cc12 | < 100 nM
* Cc1ccc(S(=O)(=O)n2c(-c3cccc(-c4ccc(C(C)(C)C(=O)O)c(S(C)(=O)=O)c4)c3)c(-c3ccsc3C#N)c3cc(F)ccc32)cc1 | < 100 nM

Switching to the query record.
State, in one line, measured EC50 of O=C(O)c1ccc(-c2cccc(-c3c(-c4cccc5nncn45)c4cc(F)ccc4n3S(=O)(=O)c3ccc(C(F)F)cc3)c2)c(Cl)c1
100 to 1000 nM
